Here's a batch of compounds along with measured pIC50 for MTP (Homo sapiens, UniProt P55157).
Convention used: pIC50 is expressed as -log10 of the molar concentration.

Query pIC50 on MTP (Homo sapiens, UniProt P55157) for CCOC(=O)[C@]1(c2ccccc2)CC[C@H](C(=O)N2CCN(C(=O)c3ccccc3OC)CC2)c2ccccc21
Sequence (P55157 19-894, species assumed): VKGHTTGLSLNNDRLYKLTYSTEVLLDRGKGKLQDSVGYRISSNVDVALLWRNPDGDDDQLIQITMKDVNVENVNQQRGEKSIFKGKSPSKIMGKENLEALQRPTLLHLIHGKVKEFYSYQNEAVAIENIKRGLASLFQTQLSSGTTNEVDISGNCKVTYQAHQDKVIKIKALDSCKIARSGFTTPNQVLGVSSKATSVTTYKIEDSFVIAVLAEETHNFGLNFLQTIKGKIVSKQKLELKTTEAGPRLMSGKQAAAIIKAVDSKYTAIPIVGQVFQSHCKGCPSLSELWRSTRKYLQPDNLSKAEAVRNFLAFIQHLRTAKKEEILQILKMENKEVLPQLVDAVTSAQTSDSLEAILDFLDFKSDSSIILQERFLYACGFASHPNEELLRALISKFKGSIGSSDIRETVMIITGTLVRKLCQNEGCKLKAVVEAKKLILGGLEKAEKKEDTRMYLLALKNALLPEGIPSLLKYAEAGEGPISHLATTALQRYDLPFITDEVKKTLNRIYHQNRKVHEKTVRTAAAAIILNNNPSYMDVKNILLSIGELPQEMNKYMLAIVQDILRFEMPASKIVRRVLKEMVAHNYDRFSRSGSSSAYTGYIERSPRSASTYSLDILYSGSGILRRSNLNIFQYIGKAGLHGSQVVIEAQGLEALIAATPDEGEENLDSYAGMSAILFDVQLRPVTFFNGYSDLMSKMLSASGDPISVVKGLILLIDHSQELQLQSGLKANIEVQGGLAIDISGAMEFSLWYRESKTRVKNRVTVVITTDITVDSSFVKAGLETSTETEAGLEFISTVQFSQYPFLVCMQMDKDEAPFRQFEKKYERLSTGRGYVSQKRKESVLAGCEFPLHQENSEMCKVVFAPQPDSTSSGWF
Sequence (P07237 18-508 partner, species assumed): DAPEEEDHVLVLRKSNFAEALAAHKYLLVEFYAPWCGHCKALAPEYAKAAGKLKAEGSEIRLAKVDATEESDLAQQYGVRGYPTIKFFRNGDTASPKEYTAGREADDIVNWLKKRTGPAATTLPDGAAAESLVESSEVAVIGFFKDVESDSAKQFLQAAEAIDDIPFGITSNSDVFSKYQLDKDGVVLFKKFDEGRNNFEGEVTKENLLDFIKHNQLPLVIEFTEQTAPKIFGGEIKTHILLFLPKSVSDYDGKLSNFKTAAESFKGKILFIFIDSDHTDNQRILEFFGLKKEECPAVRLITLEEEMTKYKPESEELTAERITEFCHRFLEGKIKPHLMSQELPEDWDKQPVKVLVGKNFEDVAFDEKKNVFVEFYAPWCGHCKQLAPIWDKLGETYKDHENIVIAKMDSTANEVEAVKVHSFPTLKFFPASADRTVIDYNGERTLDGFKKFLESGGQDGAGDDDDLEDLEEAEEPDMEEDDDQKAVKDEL
6.22

Here is the next compound: COc1ccccc1C(=O)NC1CCN(C(=O)[C@H]2CC[C@@](C(=O)NCCC(=O)OC(C)C)(c3ccccc3)c3ccccc32)CC1
8.88

Here is the next compound: CCOC(=O)CCCNC(=O)[C@@]1(c2ccccc2)CC[C@H](C(=O)N2CCC(NC(=O)c3ccccc3OC)CC2)c2ccccc21
8.50

Here is the next compound: COc1ncccc1C(=O)NC1CCN(C(=O)[C@H]2CC[C@@](C(=O)NCCC(=O)O)(c3ccccc3)c3ccccc32)CC1
5.75

Here is the next compound: COC(=O)[C@]1(c2ccccc2)CC[C@@H](C(=O)N2CCC(NC(=O)c3cc(OC)ccc3OC)CC2)c2ccccc21
7.93

Here is the next compound: COc1ccccc1C(=O)NC1CCN(C(=O)[C@H]2CC[C@@](C(=O)N[C@@H](Cc3ccccc3)C(=O)OC(C)(C)C)(c3ccccc3)c3ccccc32)CC1
7.75

====

TARGET UNDER TEST: MTP (Homo sapiens, UniProt P55157)
pIC50: −log10 of the molar value.
Decide by pIC50: equal to or exceeding 6 means yes (1), less means no (0).

Would you say CCOC(=O)[C@H]1CCCN1C(=O)[C@@]1(c2ccccc2)CC[C@H](C(=O)N2CCC(NC(=O)c3ccccc3OC)CC2)c2ccccc21 shows pIC50 at minimum 6?
yes (1)

Here is the next compound: C[C@@H](NC(=O)[C@@]1(c2ccccc2)CC[C@H](C(=O)N2CCC(NC(=O)c3cccn(C)c3=O)CC2)c2ccccc21)C(=O)OC(C)(C)C
no (0)

Here is the next compound: COc1ccccc1C(=O)NC1CCN(C(=O)[C@H]2CC[C@@](C(=O)N3C[C@H](O)C[C@H]3C(=O)O)(c3ccccc3)c3ccccc32)CC1
no (0)

Here is the next compound: CCOC(=O)[C@]1(c2ccccc2)CC[C@@H](C(=O)N2CCC(NC(=O)c3ccccc3)CC2)c2ccccc21
no (0)

Here is the next compound: CCCOC(=O)CCCCCNC(=O)[C@@]1(c2ccccc2)CC[C@H](C(=O)N2CCC(NC(=O)c3ccccc3OC)CC2)c2ccccc21
yes (1)

Here is the next compound: CCOC(=O)[C@@]1(c2ccccc2)CC[C@H](C(=O)N2CCC(NC(=O)c3ccccc3OC)CC2)c2ccccc21
yes (1)

Here is the next compound: CCOC(=O)[C@@]1(c2cccc(F)c2)CC[C@@H](C(=O)N2CCC(NC(=O)c3ccccc3OC)CC2)c2cc(F)ccc21
yes (1)

Here is the next compound: COc1ccccc1C(=O)NC1CCN(C(=O)[C@@H]2CC[C@](C(N)=O)(c3ccccc3)c3ccccc32)CC1 (single isomer, unassigned)
yes (1)

Here is the next compound: CC(C)[C@@H](NC(=O)[C@@]1(c2ccccc2)CC[C@H](C(=O)N2CCC(NC(=O)c3cccn(C)c3=O)CC2)c2ccccc21)C(=O)O
no (0)

Here is the next compound: COc1ccccc1C(=O)NC1CCN(C(=O)[C@H]2CC[C@@](C(=O)N[C@@H](CC(N)=O)C(=O)O)(c3ccccc3)c3ccccc32)CC1
no (0)

Here is the next compound: Cn1cccc(C(=O)NC2CCN(C(=O)[C@H]3CC[C@@](C(=O)N[C@@H](CC(=O)OC(C)(C)C)C(=O)OC(C)(C)C)(c4ccccc4)c4ccccc43)CC2)c1=O
no (0)

Here is the next compound: COC(=O)[C@]1(c2ccccc2)CC[C@@H](C(=O)N2CCC(NC(=O)c3cc(S(N)(=O)=O)ccc3OC)CC2)c2ccccc21
yes (1)

Here is the next compound: CCOC(=O)[C@@]1(c2ccccc2)CC[C@H](C(=O)N2CCC(NC(=O)c3cccnc3OC)CC2)c2ccccc21
yes (1)

Here is the next compound: COC(=O)[C@]1(c2ccccc2)CC[C@@H](C(=O)N2CCC(NC(=O)c3cccc(OC)c3OC)CC2)c2ccccc21
yes (1)

Here is the next compound: C[C@@H](NC(=O)[C@@]1(c2ccccc2)CC[C@H](C(=O)N2CCC(NC(=O)c3cccn(C)c3=O)CC2)c2ccccc21)C(=O)O
no (0)

Here is the next compound: COC(=O)CCNC(=O)[C@@]1(c2ccccc2)CC[C@H](C(=O)N2CCC(NC(=O)c3ccccc3N3CCN(C)CC3)CC2)c2ccccc21
yes (1)

Here is the next compound: COC(=O)CCCCCNC(=O)[C@@]1(c2ccccc2)CC[C@H](C(=O)N2CCC(NC(=O)c3ccccc3OC)CC2)c2ccccc21
yes (1)

Here is the next compound: O=C(NC1CCN(C(=O)C2CCC(C(=O)NCc3ccccc3)(c3ccccc3)c3ccccc32)CC1)c1ccccc1 (stereo not drawn)
yes (1)

Here is the next compound: Cn1cccc(C(=O)NC2CCN(C(=O)[C@H]3CC[C@@](C(=O)N4CCC[C@@H]4C(=O)OC(C)(C)C)(c4ccccc4)c4ccccc43)CC2)c1=O
no (0)

Here is the next compound: COC(=O)CCNC(=O)[C@]1(c2ccccc2)CC[C@@H](C(=O)N2CCC(NC(=O)c3ccccc3N3CCOCC3)CC2)c2ccccc21
yes (1)

These data points were gathered from patent US8114880B2.
